System: DIV30
Assay: qHTS profiling for inhibitors of Plasmodium falciparum proliferation (AID 504749); note: nearly all actives have a fitted effect of over 60% in size; note: potency is the fitted concentration of half-maximal effect
Settings: P. falciparum in erythrocytes, SYBR Green DNA, 72 h; series mostly up to 28.7 µM
Inconclusive results are not listed. Active and inactive are the calls of the source. Calls come from the whole dose curve; as a rule, active = well fitted inhibition curve with a large enough effect; inconclusive = small, poorly fitted or top-dose-only effect; inactive = flat fitted curve, though single readings scatter.
Quantity kind: Potency

- CC(C)(CO)[C@@H](O)C(=O)NCCC(=O)NCCSSCCNC(=O)CCNC(=O)[C@H](O)C(C)(C)CO: inactive
- CCC(C(=O)NC(N)=O)c1ccccc1 (stereo not given): inactive
- CCCc1ccc(C(=O)O)cc1: inactive
- O=C(O)CCC(=O)c1ccc(-c2ccccc2)cc1: inactive
- O.O.O.O.O.O.O.O=S(=O)([O-])[O-].[Co+2]: 9.53 µM (active)
- OB(O)O: inactive

Q. Identify the reported Potency for the following entry. Oc1cccc(O)c1O
A. inactive

Q. Read off the recorded Potency for NC(N)=O
A. inactive

Q. Answer with the recorded Potency for the molecule listed here: O=C(O)c1ccc(OCCn2ccnc2)cc1
A. inactive

Q. Read off the recorded Potency for C[C@]12CC[C@@H]3c4ccc(OC(=O)c5ccccc5)cc4CC[C@H]3[C@@H]1CC[C@@H]2O
A. inactive

---

System: KB-3-1
Assay: Cytotoxic Profiling of Annotated Libraries Using Quantitative High-Throughput Screening (AID 1296008); note: % is set by controls: 0 for no effect and ±100 for the full control effect; nearly all actives have a fitted effect of over 60% in size
Settings: Five cell lines viability, CellTiter-Glo ATP luminescence, 48-72 h; hits give low values
Results filed as inconclusive are left out.
This listing pairs molecules with measured max response.
Write down the numeric answer in % and omit the unit.

The cases that follow already have their max response on record.
* CCCCC[C@H](O)/C=C/[C@@H]1[C@H]2C/C(=C/CCCC(=O)O)O[C@H]2C[C@H]1O | 11.9
* CN(C)CCCSc1ccccc1NC(=O)/C=C/c1ccccc1 | -0.0858
* C=CCOc1ccc(CC(=O)O)cc1Cl | 11.1
* O=C(CCCCCCCCCCCCC1CCCC1)Nc1ccc(S(=O)(=O)c2ccc(NC(=O)CCCCCCCCCCCCC3CCCC3)cc2)cc1 | 4.77

Q. Provide one value: measured max response of NCCCC[C@H](N)C(=O)O
A. 0.45

Q. Give the value of max response reported for the following: NCC[C@H](O)C(=O)N[C@@H]1C[C@H](N)[C@@H](O[C@H]2O[C@H](CN)CC[C@H]2N)[C@H](O)[C@H]1O[C@H]1O[C@H](CO)[C@@H](O)[C@H](N)[C@H]1O
A. 4.22

Q. Using known records, supply max response for C[C@]12CCC(=O)C[C@@H]1CC[C@@H]1[C@@H]2CC[C@]2(C)C=CC[C@@H]12
A. -14.2

Q. Tell us which max response value is on record for Cc1ccc(S(=O)(=O)NCl)cc1
A. 2.64

Q. Give recorded max response. OC[C@H]1O[C@@H](O[C@H]2[C@H](O)[C@@H](O)[C@H](O)O[C@@H]2CO)[C@H](O)[C@@H](O)[C@@H]1O
A. 4.72

---

Assay: Drug repurposing screens with cells derived from glioblastoma tumor samples (AID 1345199); note: % is set by controls: 0 for no effect and ±100 for the full control effect; nearly all actives have a fitted effect of over 40% in size
Conditions: GBM patient neurospheres viability, ATP luminescence, 48 h; at 46.1 µM (top of the series); tumour line C
Results filed as inconclusive are left out.
Values of activity, negative = cell killing strictly less than -10% map to label 1, and values of at least -10% map to label 0.

Use these answered entries as a reference point.
* OCc1ccccc1 | label 0
* C[C@H](NCCc1ccc(O)cc1)[C@H](O)c1ccc(O)cc1 | label 1
* CC(=O)N[C@@H]1C(O[C@H]2O[C@H](C(=O)O)C(O)[C@H](O)[C@H]2O)[C@H](O)[C@@H](CO)O[C@H]1O[C@@H]1C(C(=O)O)O[C@@H](O[C@H]2[C@H](O)[C@@H](CO)OC(O)[C@@H]2NC(C)=O)[C@H](O)[C@H]1O (stereo partly drawn) | label 0
* CC(C)=CCC/C(C)=C/C=C/C(C)=C/C=C/C(C)=C/C=C/C=C(C)/C=C/C=C(C)/C=C/C=C(\C)CCC=C(C)C | label 0
* CCCCCCCCCCCC(=O)OC[C@@H](O)C1OC[C@H](O)[C@H]1O (stereo partly drawn) | label 1
* CC[C@H]1NC(=O)[C@@H](NC(=O)c2ncccc2O)[C@@H](C)OC(=O)[C@H](c2ccccc2)NC(=O)[C@@H]2CC(=O)CCN2C(=O)[C@H](Cc2ccccc2)N(C)C(=O)[C@@H]2CCCN2C1=O | label 1

Q. Say whether its activity, negative = cell killing is strictly beneath -10%. Entry: CC[C@@H](C)[C@H](N)C(=O)O
A. label 1

Q. is_below(activity, negative = cell killing, -10%) for CCOC(=S)SSC(=S)OCC ?
A. label 0

---

Tested on: PC49
Assay: qHTS profiling for inhibitors of Plasmodium falciparum proliferation (AID 504749); note: nearly all actives have a fitted effect of over 60% in size
Settings: P. falciparum in erythrocytes, SYBR Green DNA, 72 h; series mostly up to 28.7 µM
Results filed as inconclusive are left out. The source made the active and inactive calls. Calls come from the whole dose curve; as a rule, active = well fitted inhibition curve with a large enough effect; inconclusive = small, poorly fitted or top-dose-only effect; inactive = flat fitted curve, though single readings scatter.
Outcome field: choose from active, inactive

* CN(C)C(=O)CCSC(SCCC(=O)O)c1cccc(/C=C/c2ccc3ccc(Cl)cc3n2)c1 (stereo unspecified) | inactive
* CO | inactive
* CCCCC[C@H](O)/C=C/[C@H]1[C@H](O)CC(=O)[C@@H]1C/C=C\CCCC(=O)O | inactive
* Cc1ncc(C[n+]2csc(CCO)c2C)c(N)n1 | inactive
* NC(=O)CC[C@@H]1NC(=O)[C@H](Cc2ccccc2)NC(=O)[C@H](Cc2ccc(O)cc2)NC(=O)[C@@H](N)CSSC[C@@H](C(=O)N2CCC[C@H]2C(=O)N[C@@H](CCCN=C(N)N)C(=O)NCC(N)=O)NC(=O)[C@H](CC(N)=O)NC1=O | inactive

Q. Given OC/C=C/c1ccccc1 , state the outcome it received in this test.
A. inactive

Q. Lab log entry: O=C1c2ccccc2C(=O)C1c1ccc(F)cc1 — outcome as called in the assay?
A. inactive

Q. // return assay outcome for Cn1c(O)c(N=NC(N)=S)c2ccccc21
A. inactive

---

System: SC27B
Experiment: qHTS profiling for inhibitors of Plasmodium falciparum proliferation (AID 504749); note: nearly all actives have a fitted effect of over 60% in size
Conditions: P. falciparum in erythrocytes, SYBR Green DNA, 72 h; series mostly up to 28.7 µM
Description: NIH National Institute of Allergy and Infectious Diseases [NIAID] NIH Chemical Genomics Center [NCGC] […] Because mature erythrocytes lack DNA, only Plasmodium-derived DNA is detected. NCGC Assay Protocol Summary: The SYBR Green viability assay was adapted from a method described previously (Plouffe et al., 2008). […] The following morning, fluorescence intensity at 485(14) nm excitation and 535(25) nm emission wavelengths was measured on an EnVision (Perkin Elmer) plate reader. […]
Inconclusive results are not listed. Activity calls are given as the source filed them. Calls follow the shape of the dose curve; as a rule, active = well fitted inhibition curve with a large enough effect; inconclusive = small, poorly fitted or top-dose-only effect; inactive = flat fitted curve, though single readings scatter.
Result category, one only: label 1 = active, label 0 = inactive

* CCOC(=S)SSC(=S)OCC | label 0
* CC(=O)Nc1ccc(OC(C)=O)cc1 | label 0

Q. Hi team, can someone confirm the assay call for c1ccc2ccccc2c1 ?
A. label 0

Q. Tell me the recorded outcome of this test for CCN(CC)C(=S)S .
A. label 0

Q. Hello, I am checking results. What call was entered for Cc1ncc(COP(=O)(O)O)c(CN)c1O ?
A. label 0

Q. Hello, I am checking results. What call was entered for OC/C=C/c1ccccc1 ?
A. label 0

---

Experiment: Drug repurposing screens with cells derived from glioblastoma tumor samples (AID 1345199); note: % is set by controls: 0 for no effect and ±100 for the full control effect; nearly all actives have a fitted effect of over 40% in size
Details: GBM patient neurospheres viability, ATP luminescence, 48 h; at 45.9 µM (top of the series); tumour line B
Description: CD133+ cells were isolated from GBM patient biopsies and cultured as neurospheres. Neurospheres from four patients were used to screen the NCATS pharmaceutical collection (NPC) library of approved drugs and bioactive compounds. […] The neurospheres were incubated with drugs for 48 hours in 1536-well format, then assayed with an ATP content cell viability assay. […]
Inconclusive results are not listed.
activity, negative = cell killing for assorted molecules
Output spec: scalar in %, unitless text.

* CC(CCc1ccc(O)cc1)NCC(O)c1ccc(O)cc1 (stereo not drawn) | 1.78
* CC(C)CCCC(C)NC(C)C (stereo not drawn) | -14.7
* CC/C=C\C/C=C\C/C=C\CCCCCCCC(=O)O | 8.6

Q. Answer with the recorded activity, negative = cell killing of COc1cc(S(C)=O)ccc1-c1nc2ncccc2[nH]1 (stereo not drawn) only.
A. -1.29

Q. Check the records and state activity, negative = cell killing for CO[C@@H]1[C@H](OC(=O)/C=C/C=C/C=C/C=C/C(=O)O)CC[C@]2(CO2)[C@H]1[C@@]1(C)O[C@@H]1CC=C(C)C
A. 2.14

Q. Could you please provide reported activity, negative = cell killing for Cc1ncc(C[n+]2csc(CCOP(=O)(O)O)c2C)c(N)n1 ? Thanks!
A. -1.8

Q. Find the measured activity, negative = cell killing of CC(C)[C@@H](N)C(=O)O and report it.
A. -4.72

Q. Note activity, negative = cell killing for the molecule shown: CO/N=C(\C(=O)N[C@@H]1C(=O)N2C(C(=O)[O-])=C(C[n+]3ccc(N)n3CCO)CS[C@H]12)c1csc(N)n1
A. -6.9

Q. Give reported activity, negative = cell killing value for CC(=NCc1ccccc1)c1ccccc1O
A. -12.5

Q. Answer with the recorded activity, negative = cell killing of NC(=O)[C@@H]1C[C@]2(NC(=O)NC2=O)c2cc(F)ccc2O1 only.
A. -9.48

Q. Provide only the value of recorded activity, negative = cell killing for CC12CCC(C1)C(C)(C)C2=O (stereo not drawn)
A. -4.04
